Biological target: isolated recombinant JAK1 kinase domain (Homo sapiens (Human), UniProt P23458)
Sequence (P23458 875-1153): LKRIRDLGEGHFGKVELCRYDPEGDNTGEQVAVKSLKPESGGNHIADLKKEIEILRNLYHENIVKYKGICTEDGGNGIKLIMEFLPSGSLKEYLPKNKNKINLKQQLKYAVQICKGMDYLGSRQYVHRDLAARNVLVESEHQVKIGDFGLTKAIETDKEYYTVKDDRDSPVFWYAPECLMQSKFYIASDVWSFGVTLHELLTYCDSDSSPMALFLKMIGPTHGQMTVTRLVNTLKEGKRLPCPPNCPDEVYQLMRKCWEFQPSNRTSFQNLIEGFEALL
Assay: JAK1 enzyme assay (Caliper LabChip, Ki)
Assay type: biochemical
Details: read-out: JAK1 Ki
EXPERIMENTAL_READOUT: log10 of Ki (log10 of the value in nM)

compound="N#CC[C@@]1(n2cc(C(N)=O)c(NC(=O)C3CC3)n2)CCN(Cc2ccc(-c3ccccc3)cc2)C[C@@H]1F (single isomer, unassigned)" experimental_readout="log10 of Ki" observed_measurement=-0.22
compound=COC(=O)Nc1nn(C2(CC#N)CCN(CC(F)(F)F)CC2)cc1C(N)=O experimental_readout="log10 of Ki" observed_measurement=0.91
compound=N#CCC1(n2cc(C(N)=O)c(NC(=O)C3CC3)n2)CCN(Cc2ccc(-n3cccn3)cc2)CC1 experimental_readout="log10 of Ki" observed_measurement=0.34
compound=CS(=O)(=O)c1ccccc1CN1CCC(CC#N)(n2cc(C(N)=O)c(NC(=O)C3CC3)n2)CC1 experimental_readout="log10 of Ki" observed_measurement=1.18
compound="C#Cc1ccc(OC2(C)CN(C3CCC(CC#N)(n4cc(C(N)=O)c(NC(=O)C5CC5)n4)CC3)C2)cc1 (centres unmarked)" experimental_readout="log10 of Ki" observed_measurement=-0.13
compound=COc1cccc(-c2ccc(CN3CCC(CC#N)(n4cc(C(N)=O)c(NC(=O)C5CC5)n4)CC3)cc2)c1 experimental_readout="log10 of Ki" observed_measurement=0.11
compound=N#CCC1(n2cc(C(N)=O)c(NC(=O)C3CC3)n2)CCN(Cc2ccc(-c3ccncc3)cc2)CC1 experimental_readout="log10 of Ki" observed_measurement=1.28
compound="N#CC[C@]1(n2cc(C(N)=O)c(NC(=O)C3CC3)n2)CCN(Cc2ccc(-c3ccccc3)cc2)C[C@H]1F (single isomer, unassigned)" experimental_readout="log10 of Ki" observed_measurement=-0.70
compound=N#CCC1(n2cc(C(N)=O)c(NC(=O)C3CC3)n2)CCN(Cc2ccc(-c3ccc(C(F)(F)F)cc3)nc2)CC1 experimental_readout="log10 of Ki" observed_measurement=0.34
compound="CCc1ccc(C2(F)CN(C3CCC(CC#N)(n4cc(C(N)=O)c(NC(=O)C5CC5)n4)CC3)C2)cc1 (centres unmarked)" experimental_readout="log10 of Ki" observed_measurement=0.04
compound="COC(=O)Nc1nn(C2(CC#N)CCN(Cc3ccc(C4=CCCCC4)cc3)CC2F)cc1C(N)=O (centres unmarked)" experimental_readout="log10 of Ki" observed_measurement=-0.14
compound=CCC1(n2cc(C(N)=O)c(Nc3ccc(S(=O)(=O)C(F)F)cc3)n2)CCN(C(=O)CC#N)CC1 experimental_readout="log10 of Ki" observed_measurement=-0.31
compound=Cc1c(CN2CCC(CC#N)(n3cc(C(N)=O)c(NC(=O)C4CC4)n3)CC2)ccc(-c2ccccc2)c1O experimental_readout="log10 of Ki" observed_measurement=-0.20

---

In this section we review reported log10(Ki) values for a set of compounds.
Target: isolated recombinant JAK1 kinase domain (Homo sapiens (Human))
Experiment: JAK1 enzyme assay (Caliper LabChip, Ki)
Assay type: biochemical
Settings: read-out: JAK1 Ki
EXPERIMENTAL_READOUT: log10(Ki) (log10 of the value in nM)

compound="N#CCC1(n2cc(C(N)=O)c(NC(=O)C3CC3)n2)CCN(Cc2ccc(-c3ccccc3)c(O)c2)CC1 [Example 11]" observed_measurement=-0.40
compound="N#CCC1(n2cc(C(N)=O)c(NC(=O)C3CC3)n2)CCN(C(=O)NC2CC(F)(F)C2)CC1 [Example 21]" observed_measurement=0.36
compound="CC(F)(F)C(=O)N1CCC(CC#N)(n2cc(C(N)=O)c(NC(=O)C3CC3)n2)CC1 [Example 171]" observed_measurement=0.82
compound="N#CCC1(n2cc(C(N)=O)c(NC(=O)C3CC3)n2)CCN(Cc2ccccc2C#N)CC1 [Example 64]" observed_measurement=0.86
compound="N#CCC1(n2cc(C(N)=O)c(NC(=O)C3CC3)n2)CCN(Cc2ccc(C3CCCCC3)cc2)CC1F (stereo not shown) [Example 271]" observed_measurement=0.41
compound="CCn1ccc(-c2ccc(CN3CCC(CC#N)(n4cc(C(N)=O)c(NC(=O)OC)n4)C(F)C3)c(F)c2)n1 (stereo not shown) [Example 241]" observed_measurement=-0.27
compound="COC(=O)Nc1nn(C2(CC#N)CCC(N3CC(F)(c4ccccc4)C3)CC2)cc1C(N)=O (stereo not shown) [Example 243]" observed_measurement=0.43

---

In this section we review reported pKi values for a set of compounds.
Biological target: isolated recombinant JAK2 kinase domain (Homo sapiens (Human), UniProt O60674)
Sequence (O60674 849-1124): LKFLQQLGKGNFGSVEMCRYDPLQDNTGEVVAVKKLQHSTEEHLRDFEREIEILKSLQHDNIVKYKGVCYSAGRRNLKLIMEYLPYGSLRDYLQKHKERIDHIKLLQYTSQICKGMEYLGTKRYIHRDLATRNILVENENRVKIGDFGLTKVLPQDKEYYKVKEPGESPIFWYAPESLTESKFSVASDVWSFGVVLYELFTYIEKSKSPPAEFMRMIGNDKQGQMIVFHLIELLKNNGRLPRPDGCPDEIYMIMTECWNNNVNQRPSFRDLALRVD
Assay: JAK2 enzyme assay (Caliper LabChip, Ki)
pKi: −log10 of the molar value.
EXPERIMENTAL_READOUT: pKi

compound=CC[C@]1(n2cc(C(N)=O)c(Nc3ccc(S(C)(=O)=O)cc3)n2)CC[C@H](N2CC(C(F)(F)F)C2)CC1 observed_measurement=8.70
compound="N#CC[C@]1(n2cc(C(N)=O)c(NC(=O)C3CC3)n2)CC[C@@H](NCC(F)(F)F)CC1 (single isomer, unassigned)" observed_measurement=6.60
compound=N#CCC1(n2cc(C(N)=O)c(NC(=O)C3CC3)n2)CCN(Cc2ccc(-c3ccn(CC(F)(F)F)n3)c(F)c2)CC1 observed_measurement=7.96
compound="N#CCC1(n2cc(C(N)=O)c(NC(=O)C3CC3C#N)n2)CCN(Cc2ccc(-c3ccccc3)cc2F)CC1F (stereo not shown) [Example 218]" observed_measurement=9.23
compound=N#CC[C@]1(n2cc(C(N)=O)c(NC(=O)C3CC3)n2)CC[C@H](NCc2cccc(F)c2)CC1 observed_measurement=6.73
compound=CC(=O)Nc1cccc(CN2CCC(CC#N)(n3cc(C(N)=O)c(NC(=O)C4CC4)n3)CC2)c1 observed_measurement=7.43
compound=N#CC[C@]1(n2cc(C(N)=O)c(NC(=O)C3CC3)n2)CCN(Cc2ccccc2)C[C@H]1F observed_measurement=6.68

---

In this section we review reported Ki values for a set of molecules.
Target: isolated recombinant JAK2 kinase domain (Homo sapiens (Human))
Experiment: JAK2 enzyme assay (Caliper LabChip, Ki)
EXPERIMENTAL_READOUT: Ki (nM)

molecule=N#CCC1(n2cc(C(N)=O)c(NC(=O)C3CC3)n2)CCN(Cc2ccc(-c3ccncc3)cc2)CC1 observed_measurement=101
molecule=N#CCC1(n2cc(C(N)=O)c(NC(=O)C3CC3)n2)CCN(Cc2cnn(-c3ccccc3)c2)CC1 observed_measurement=133
molecule=N#CCC1(n2cc(C(N)=O)c(NC(=O)C3CC3)n2)CCN(Cc2ccccc2I)CC1 observed_measurement=101
molecule="CCc1nc(-c2ccc(CN3CCC(CC#N)(n4cc(C(N)=O)c(NC(=O)OC)n4)C(F)C3)cc2)cs1 (stereo not drawn)" observed_measurement=0.52
molecule="N#CCC1(n2cc(C(N)=O)c(NC(=O)C3CC3)n2)CCC(Oc2ccc(-c3ccccc3)cc2)CC1 (single isomer, unassigned) [Example 211]" observed_measurement=4.6
molecule="COC(=O)Nc1nn(C2(CC#N)CCN(Cc3ccc(-c4ccccc4)nc3F)CC2F)cc1C(N)=O (stereo not drawn)" observed_measurement=0.22
molecule=N#CCC1(n2cc(C(N)=O)c(NC(=O)C3CC3)n2)CCN(Cc2ccc(-c3ccccc3)c(O)c2)CC1 observed_measurement=1
molecule=N#CC[C@]1(n2cc(C(N)=O)c(NC(=O)C3CC3)n2)CC[C@@H](N2CC(F)C2)CC1 observed_measurement=17.3
molecule="COC(=O)Nc1nn(C2(CC#N)CCN(Cc3ccc(C4=CCCCC4)nc3F)CC2F)cc1C(N)=O (stereo not drawn)" observed_measurement=1.4
molecule=N#CC[C@]1(n2cc(C(N)=O)c(NC(=O)C3CC3)n2)CC[C@H](NCc2ccccc2F)CC1 observed_measurement=87.3
molecule=COC(=O)Nc1nn(C2(CC#N)CCN(Cc3ccc(-c4ccccc4)c(O)c3)CC2)cc1C(N)=O observed_measurement=1
molecule=COc1cc(CN2CCC(CC#N)(n3cc(C(N)=O)c(NC(=O)C4CC4)n3)CC2)ccc1-c1ccccc1 observed_measurement=10.6
molecule=N#CCC1(n2cc(C(N)=O)c(NC(=O)C3CC3)n2)CCN(Cc2ccc(C#CC3CC3)cc2)CC1 observed_measurement=3
molecule="COC(=O)Nc1nn(C2(CC#N)CCN(Cc3ccc(-c4ncco4)cc3)CC2F)cc1C(N)=O (stereo not drawn)" observed_measurement=1.3
molecule="COC(=O)Nc1nn(C2(CC#N)CCN(Cc3cnc(-c4ccccc4)cc3F)CC2F)cc1C(N)=O (stereo not drawn)" observed_measurement=0.3

---

Target: isolated recombinant JAK1 kinase domain (Homo sapiens (Human), UniProt P23458)
Assay: JAK1 enzyme assay (Caliper LabChip, Ki)
Assay type: biochemical
Conditions: read-out: JAK1 Ki
Ki less than 2 nM is met; Ki greater than or equal to 2 nM is not met.

compound="N#CCC1(n2cc(C(N)=O)c(NC(=O)C3CC3C#N)n2)CCN(CC2CCC(c3ccccc3)CC2)CC1F (stereo not shown) [Example 228]" class=met
compound=CCc1ccc(-c2ccc(CN3CCC(CC#N)(n4cc(C(N)=O)c(NC(=O)C5CC5)n4)CC3)cc2)cc1 class=met
compound="N#CC[C@]1(n2cc(C(N)=O)c(NC(=O)C3CC3)n2)CC[C@H](N2CC(C(F)(F)F)C2)CC1 (single isomer, unassigned)" class=met
compound="COC(=O)Nc1nn(C2(CC#N)CCN(Cc3cc(O)c(-c4ccoc4)cc3F)CC2F)cc1C(N)=O (stereo not shown)" class=met
compound=N#CCC1(n2cc(C(N)=O)c(NC(=O)C3CC3)n2)CCN(Cc2ccccc2Cl)CC1 class="not met"
compound=N#CCC1(n2cc(C(N)=O)c(NC(=O)C3CC3)n2)CCN(CCc2ccccc2)CC1 class="not met"
compound=N#CCC1(n2cc(C(N)=O)c(NC(=O)C3CC3)n2)CCN(Cc2ccc(C(F)(F)F)cc2)CC1 class="not met"

Every entry's value here was drawn from patent US11731943B2.
